System: platelet-rich human plasma; platelet aggregation induced by collagen
Experiment: Platelet aggregation (platelet-rich human plasma) induced in vitro by collagen
Assay type: cell-based
Details: platelet-rich human plasma, 300,000 platelets/cm^2, 10.0 μg/ml of collagen; read-out: IC50, inductor: collagen
# key: entry, value: IC50
Express the result in µg/mL but write the number alone.

Example molecules with recorded IC50:
| molecule | IC50 (µg/mL) |
| --- | --- |
| CC(C)(C)OC(=O)CON=C1CC(=NOCC(=O)OC(C)(C)C)c2ccccc2-c2ccccc21 | 320 |
| CCN(CC)CCON=C1CC(=NOCCN(CC)CC)c2ccccc2-c2ccccc21.O=C(O)C(O)C(O)C(=O)O.O=C(O)C(O)C(O)C(=O)O | 16 |
| CCN(CC)CCON=C1c2ccccc2-c2ccccc2C(=NOCCN(CC)CC)C1c1ccc(OC)cc1.Cl.Cl (stereo not shown) | 25 |

Please fill in: IC50 reported for `Cl.Cl.c1ccc2c(c1)C(=NOCCN1CCCCC1)CC(=NOCCN1CCCCC1)c1ccccc1-2` = 120

---

Test system: platelet-rich human plasma; platelet aggregation induced by collagen
Experiment: Platelet aggregation (platelet-rich human plasma) induced in vitro by collagen
Assay type: cell-based
Conditions: platelet-rich human plasma, 300,000 platelets/cm^2, 10.0 μg/ml of collagen; read-out: IC50, inductor: collagen
Counter-ions that a name gives are not always drawn.
# key: entry, value: IC50
Express the result in µg/mL but write the number alone.

Example compounds with recorded IC50:
| compound | IC50 / µg/mL |
| --- | --- |
| Cl.Cl.NCCCON=C1CC(=NOCCCN)c2ccccc2-c2ccccc21 [Example 19] | 175 |
| Cl.Cl.c1cncc(CON=C2CC(=NOCc3cccnc3)c3ccccc3-c3ccccc32)c1 [Example 14] | 600 |

Please fill in: IC50 reported for CCCON=C1CC(=NOCCC)c2ccccc2-c2ccccc21 [Example 4] = 420

Please fill in: IC50 reported for CCN(CC)CCON=C1c2ccccc2-c2ccccc2C(=NOCCN(CC)CC)C1c1ccc(Cl)cc1.Cl.Cl (centres unmarked) [Example 34] = 40

Please fill in: IC50 reported for Cl.Cl.NCCON=C1CC(=NOCCN)c2ccccc2-c2ccccc21 [Example 18] = 50

Please fill in: IC50 reported for CCN(CC)CCON=C1c2ccccc2-c2ccccc2C(=NOCCN(CC)CC)C1c1ccc(F)cc1.Cl.Cl (centres unmarked) [Example 33] = 12

Please fill in: IC50 reported for CCN(CC)CCON=C1c2ccccc2C(=NOCCN(CC)CC)C1c1ccccc1 (centres unmarked) [Example 21, Dihydrochloride] = 40

Please fill in: IC50 reported for c1ccc2c(c1)C(=NOCC1CCCCC1)CC(=NOCC1CCCCC1)c1ccccc1-2 [Example 7] = 600

---

Test system: platelet-rich human plasma; platelet aggregation induced by collagen
Experiment: Platelet aggregation (platelet-rich human plasma) induced in vitro by collagen
Format: cell-based
Settings: platelet-rich human plasma, 300,000 platelets/cm^2, 10.0 μg/ml of collagen; read-out: IC50, inductor: collagen
Structures can show the parent of a compound that is named as a salt.
readout-kind: IC50 (µg/mL)
Express the result in µg/mL but write the number alone.

Please fill in: IC50 reported for COc1ccc(C2C(=NOCCN3CCCCC3)c3ccccc3C2=NOCCN2CCCCC2)cc1 (centres unmarked) [Example 26, Dihydrochloride] = 24

Please fill in: IC50 reported for `CCN(CC)CCON=C1CC(=NOCCN(CC)CC)c2ccccc2-c2ccccc21.O=C(O)/C=C\C(=O)O.O=C(O)/C=C\C(=O)O` = 22

Please fill in: IC50 reported for CCOC(=O)CON=C1c2ccccc2C(=NOCC(=O)OCC)C1c1ccccc1 (centres unmarked) = 150

---

# key: entry, value: IC50
System: platelet-rich human plasma; platelet aggregation induced by collagen
Assay: Platelet aggregation (platelet-rich human plasma) induced in vitro by collagen
Format: cell-based
Details: platelet-rich human plasma, 300,000 platelets/cm^2, 10.0 μg/ml of collagen; read-out: IC50, inductor: collagen
Counter-ions that a name gives are not always drawn.
Express the result in µg/mL but write the number alone.

Example molecules with recorded IC50:
| molecule | system-name | reading |
| --- | --- | --- |
| c1ccc(C2C(=NOCCN3CCCCC3)c3ccccc3C2=NOCCN2CCCCC2)cc1 (stereo not shown) [Example 25, Dihydrochloride] | platelet-rich human plasma; platelet aggregation induced by collagen | 38 |
| CCN(CC)CCON=C1CC(=NOCCN(CC)CC)c2ccccc21 [Example 22, Dihydrochloride] | platelet-rich human plasma; platelet aggregation induced by collagen | 145 |
| c1ccc(C2C(=NOCCN3CCOCC3)c3ccccc3C2=NOCCN2CCOCC2)cc1 (stereo not shown) [Example 24, Dihydrochloride] | platelet-rich human plasma; platelet aggregation induced by collagen | 340 |
| O=C(O)CON=C1c2ccccc2C(=NOCC(=O)O)C1c1ccccc1 (stereo not shown) [Example 31] | platelet-rich human plasma; platelet aggregation induced by collagen | 250 |
| CC(C)(C)ON=C1CC(=NOC(C)(C)C)c2ccccc2-c2ccccc21 [Example 6] | platelet-rich human plasma; platelet aggregation induced by collagen | 600 |
| CCN(CC)CCON=C1c2ccccc2C(=NOCCN(CC)CC)C1c1ccc2c(c1)OCO2 (stereo not shown) [Example 29] | platelet-rich human plasma; platelet aggregation induced by collagen | 110 |

Turning now to a further record.
For CCON=C1CC(=NOCC)c2ccccc2-c2ccccc21 [Example 3] on platelet-rich human plasma; platelet aggregation induced by collagen, measured IC50 was 500

---

Tested on: platelet-rich human plasma; platelet aggregation induced by collagen
Assay: Platelet aggregation (platelet-rich human plasma) induced in vitro by collagen
Format: cell-based
Details: platelet-rich human plasma, 300,000 platelets/cm^2, 10.0 μg/ml of collagen; read-out: IC50, inductor: collagen
Where a name gives a salt, the structure may show the parent alone.
# key: entry, value: IC50
Write down the value, and be sure its unit follows.

Example compounds with recorded IC50:
| compound | system-name | IC50 |
| --- | --- | --- |
| C=CCON=C1CC(=NOCC=C)c2ccccc2-c2ccccc21 | platelet-rich human plasma; platelet aggregation induced by collagen | 800 µg/mL |
| O=C(O)CON=C1CC(=NOCC(=O)O)c2ccccc2-c2ccccc21 | platelet-rich human plasma; platelet aggregation induced by collagen | 450 µg/mL |
| CCOC(=O)CON=C1CC(=NOCC(=O)OCC)c2ccccc2-c2ccccc21 | platelet-rich human plasma; platelet aggregation induced by collagen | 650 µg/mL |
| CCN(CC)CCON=C1c2ccccc2C(=NOCCN(CC)CC)C1c1ccc(Cl)cc1 (centres unmarked) [Example 27, Dihydrochloride] | platelet-rich human plasma; platelet aggregation induced by collagen | 40 µg/mL |
| c1ccc(CCON=C2CC(=NOCCc3ccccc3)c3ccccc3-c3ccccc32)cc1 | platelet-rich human plasma; platelet aggregation induced by collagen | 600 µg/mL |
| CCN(CC)CCON=C1c2ccccc2-c2ccccc2C(=NOCCN(CC)CC)C1c1ccccc1.Cl.Cl (centres unmarked) | platelet-rich human plasma; platelet aggregation induced by collagen | 20 µg/mL |

Please fill in: IC50 reported for c1ccc2c(c1)C(=NOCCN1CCOCC1)CC2=NOCCN1CCOCC1 [Example 23, Dihydrochloride] = 350 µg/mL

Please fill in: IC50 reported for `c1ccc(CON=C2CC(=NOCc3ccccc3)c3ccccc3-c3ccccc32)cc1` = 800 µg/mL

---

Test system: platelet-rich human plasma; platelet aggregation induced by collagen
Test: Platelet aggregation (platelet-rich human plasma) induced in vitro by collagen
Format: cell-based
Conditions: platelet-rich human plasma, 300,000 platelets/cm^2, 10.0 μg/ml of collagen; read-out: IC50, inductor: collagen
Counter-ions that a name gives are not always drawn.
True if IC50 is below 600 µg/mL. False if not; exact matches included in False.

Study these solved cases before continuing.
| compound | system-name | group |
| --- | --- | --- |
| CON=C1CC(=NOC)c2ccccc2-c2ccccc21 | platelet-rich human plasma; platelet aggregation induced by collagen | False |
| CCN(CC)CCON=C1CC(=NOCCN(CC)CC)c2ccccc2-c2ccccc21.Cl.Cl | platelet-rich human plasma; platelet aggregation induced by collagen | True |
| CCN(CC)CCON=C1c2ccccc2C(=NOCCN(CC)CC)C1c1ccc(C)cc1 (centres unmarked) [Example 28, Dihydrochloride] | platelet-rich human plasma; platelet aggregation induced by collagen | True |
| N#CCCCON=C1CC(=NOCCCC#N)c2ccccc2-c2ccccc21 | platelet-rich human plasma; platelet aggregation induced by collagen | False |

**Query** Just wondering, is IC50 of `CCOC(=O)CCCON=C1CC(=NOCCCC(=O)OCC)c2ccccc2-c2ccccc21` below 600 µg/mL?
**Result** False
